- target-of-assay: Dual specificity protein kinase CLK4 (Homo sapiens)
- assay-comment: qHTS Assay for Inhibitors of CDC-like Kinase 4 (ADP-Glo Assay) (AID 1771); further: nearly all actives have a fitted effect of over 70% in size
- study-conditions: recombinant CLK4, ADP-Glo luminescence; series mostly up to 80 µM
Results filed as inconclusive are left out. The source made the active and inactive calls. The call rests on the fitted dose curve; in most records, active means well fitted inhibition curve with a large enough effect; inconclusive means small, poorly fitted or top-dose-only effect; inactive means flat fitted curve, though single readings scatter.
In this exercise, the only acceptable responses are active, inactive

Observe how each entry below is paired with its result.
O=c1cnc2cnc(N3CCNCC3)nc2n1Cc1ccc(F)cc1 = inactive
COc1cccc(-c2nc(NCc3ccccc3)c3ccccc3n2)c1 = active

Exam item: Can you look up the reported call for CN(C)c1ncc2nc(-c3ccc(F)cc3)c(=O)n(C[C@H]3CCCO3)c2n1 for me?
Marked response: inactive

Exam item: Can you look up the reported call for COc1ccc(-c2nc3cnc(N4CCOCC4)nc3n(C)c2=O)cc1 for me?
Marked response: inactive
